- TARGET ENTITY: T1, human amylin-3 (a) receptor (human, UniProt P30988 25-474; O60896 24-148)
- T1 sequence (looked up) 1: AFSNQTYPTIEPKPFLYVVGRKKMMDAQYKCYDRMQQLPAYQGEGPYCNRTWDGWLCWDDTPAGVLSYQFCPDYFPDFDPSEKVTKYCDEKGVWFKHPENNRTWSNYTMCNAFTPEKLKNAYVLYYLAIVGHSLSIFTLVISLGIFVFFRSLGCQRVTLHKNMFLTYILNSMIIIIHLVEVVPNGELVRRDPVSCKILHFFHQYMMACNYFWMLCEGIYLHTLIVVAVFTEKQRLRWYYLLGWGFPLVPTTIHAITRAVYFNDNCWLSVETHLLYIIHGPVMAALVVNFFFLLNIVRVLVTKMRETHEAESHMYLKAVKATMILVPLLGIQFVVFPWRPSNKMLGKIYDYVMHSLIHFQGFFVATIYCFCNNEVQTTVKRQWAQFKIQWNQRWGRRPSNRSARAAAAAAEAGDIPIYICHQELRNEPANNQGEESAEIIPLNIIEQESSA
- T1 sequence (looked up) 2: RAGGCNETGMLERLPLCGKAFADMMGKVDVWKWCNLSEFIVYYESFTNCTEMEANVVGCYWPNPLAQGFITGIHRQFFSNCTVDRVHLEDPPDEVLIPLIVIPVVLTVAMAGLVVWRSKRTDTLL
- MEASUREMENT DESCRIPTION: cell-based or functional assay
Starred links: 1 amine or outer side, 2 acyl side, 3 side chain; linkers in the order of their positions; H or OH if unused. Non-standard residues stand in square brackets, D forms with d. Groups on a side chain read outwards from the residue. *: point of attachment. C18 diacid = O=C(O)CCCCCCCCCCCCCCCCC(=O)*; C16 diacid = O=C(O)CCCCCCCCCCCCCCC(=O)*; γGlu = O=C(O)[C@H](CCC(=O)[*:2])N[*:1]; εLys = N[C@@H](CCCCN[*:1])C(=O)[*:2]; AEEA = NCCOCCOCC(=O)O; Aib = CC(C)(N)C(=O)O
Listed here: items and their measured Human AmyR3 potency [EC50 (pM)].
Reply with just the number (in pM).

Answered examples (3):
Compound 0045 (peptide) peptide: H[Aib]EGTFTSDVSSYLEGQAAKEFIAWLVRGRK([εLys-AEEA-AEEA-γGlu-C18 diacid])GGEASELSTAALGRLSAELHELATLPRTETGSGSP-NH2    25.9
Compound 0156 (peptide) peptide: H[Aib]EGTFTSDVSSYLEGQAAK([AEEA-AEEA-γGlu-C18 diacid])EFIAWLVRGRGQAPGQEPEASELSTAALGRLSAELHELATLPRTETGSGSP-NH2    22.6
Compound 0084 (peptide) peptide: H[Aib]EGTFTSDVSSYLEGQAAREFIAWLVRGRGQEPK([AEEA-AEEA-γGlu-C18 diacid])GQAPEASELSTAALGRLSAELHELATLPRTETGSGSP-NH2    14

# ---- query binder ----
Task item: # lookup: Human AmyR3 potency [EC50 (pM)] of Compound 0299 (peptide) peptide: H[Aib]EGTFTSDVSSYLEEK([AEEA-AEEA-γGlu-C16 diacid])AAREFIAWLVRGRGGGGGEASELSTAALGRLSAELHK([AEEA-AEEA-γGlu-C16 diacid])LATLPRTETGSGSP-NH2
Reply: 11.5
